Cited source for all entries: patent US20240084003A1

OD450 by entry:
Molecular target: T1, murine CD22 protein (ACROBiosystems, SI2-M52Ha) (murine, UniProt P35329 22-708)
T1 construct: extracellular domain; also called murine CD22-ECD; murine CD22-ECD-His
T1 sequence (looked up): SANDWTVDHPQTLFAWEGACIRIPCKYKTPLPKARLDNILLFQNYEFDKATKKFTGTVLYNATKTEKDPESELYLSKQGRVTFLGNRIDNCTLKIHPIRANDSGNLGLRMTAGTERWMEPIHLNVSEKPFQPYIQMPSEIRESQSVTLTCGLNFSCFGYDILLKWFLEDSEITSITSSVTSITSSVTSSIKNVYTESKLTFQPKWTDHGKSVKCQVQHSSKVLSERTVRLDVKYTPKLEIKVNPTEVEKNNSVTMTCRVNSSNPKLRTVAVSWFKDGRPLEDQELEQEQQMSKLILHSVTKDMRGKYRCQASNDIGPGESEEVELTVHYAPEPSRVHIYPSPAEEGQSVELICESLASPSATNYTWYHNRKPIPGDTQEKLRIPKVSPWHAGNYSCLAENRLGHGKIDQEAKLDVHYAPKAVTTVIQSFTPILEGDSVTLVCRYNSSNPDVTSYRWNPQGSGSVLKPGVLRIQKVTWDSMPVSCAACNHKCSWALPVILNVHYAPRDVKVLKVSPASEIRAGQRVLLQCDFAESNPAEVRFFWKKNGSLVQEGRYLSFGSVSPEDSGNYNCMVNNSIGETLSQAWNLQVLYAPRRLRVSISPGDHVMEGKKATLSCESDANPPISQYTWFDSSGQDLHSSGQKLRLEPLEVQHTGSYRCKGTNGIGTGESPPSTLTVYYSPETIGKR
Experiment: ELISA, coated murine CD22, 0.001 nM Ab
Your answer should be a plain number; it is taken to be in OD450.

Worked cases, answers included:
INSERT INTO assay_data (binder, quantitative_readout) VALUES
  ('F1.120.15 human-murine chimeric antibody (antibody, human IgG1, kappa, V domains shown, Chimeric, human IgG1 / kappa) VH: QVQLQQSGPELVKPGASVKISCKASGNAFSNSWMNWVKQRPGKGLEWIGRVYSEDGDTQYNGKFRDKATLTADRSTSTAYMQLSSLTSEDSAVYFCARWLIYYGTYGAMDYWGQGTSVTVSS VL: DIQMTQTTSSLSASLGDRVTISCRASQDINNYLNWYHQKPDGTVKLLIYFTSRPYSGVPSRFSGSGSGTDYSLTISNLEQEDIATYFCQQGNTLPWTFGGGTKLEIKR', 0.05),
  ('F2.121.9 human-murine chimeric antibody (antibody, human IgG1, lambda, V domains shown, Chimeric, human IgG1 / lambda) VH: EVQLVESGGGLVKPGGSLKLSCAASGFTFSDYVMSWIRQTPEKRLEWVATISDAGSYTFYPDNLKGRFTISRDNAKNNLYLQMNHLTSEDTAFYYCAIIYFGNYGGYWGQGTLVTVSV VL: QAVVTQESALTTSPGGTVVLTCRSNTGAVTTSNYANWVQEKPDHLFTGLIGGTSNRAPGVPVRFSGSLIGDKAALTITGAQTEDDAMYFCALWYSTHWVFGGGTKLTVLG', 0.06);

Read off the recorded OD450 for F1.200.11 human-murine chimeric antibody (antibody, human IgG1, kappa, V domains shown, Chimeric, human IgG1 / kappa) VH: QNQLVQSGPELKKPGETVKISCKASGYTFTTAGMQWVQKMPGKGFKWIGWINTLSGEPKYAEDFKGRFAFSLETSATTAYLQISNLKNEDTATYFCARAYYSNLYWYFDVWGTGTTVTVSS VL: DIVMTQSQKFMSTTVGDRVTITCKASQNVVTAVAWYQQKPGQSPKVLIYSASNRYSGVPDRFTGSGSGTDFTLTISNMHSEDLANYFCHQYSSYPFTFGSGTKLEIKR 0.05
